Each item that follows carries a reported log10 of kon.
Target: T1, soluble monomeric human MUC16, truncated format encompassing the last five SEA domains of Mucin-16 (human)
T1 construct: also called hMUC16.mmh; MUC16 "nub"
T1 chain: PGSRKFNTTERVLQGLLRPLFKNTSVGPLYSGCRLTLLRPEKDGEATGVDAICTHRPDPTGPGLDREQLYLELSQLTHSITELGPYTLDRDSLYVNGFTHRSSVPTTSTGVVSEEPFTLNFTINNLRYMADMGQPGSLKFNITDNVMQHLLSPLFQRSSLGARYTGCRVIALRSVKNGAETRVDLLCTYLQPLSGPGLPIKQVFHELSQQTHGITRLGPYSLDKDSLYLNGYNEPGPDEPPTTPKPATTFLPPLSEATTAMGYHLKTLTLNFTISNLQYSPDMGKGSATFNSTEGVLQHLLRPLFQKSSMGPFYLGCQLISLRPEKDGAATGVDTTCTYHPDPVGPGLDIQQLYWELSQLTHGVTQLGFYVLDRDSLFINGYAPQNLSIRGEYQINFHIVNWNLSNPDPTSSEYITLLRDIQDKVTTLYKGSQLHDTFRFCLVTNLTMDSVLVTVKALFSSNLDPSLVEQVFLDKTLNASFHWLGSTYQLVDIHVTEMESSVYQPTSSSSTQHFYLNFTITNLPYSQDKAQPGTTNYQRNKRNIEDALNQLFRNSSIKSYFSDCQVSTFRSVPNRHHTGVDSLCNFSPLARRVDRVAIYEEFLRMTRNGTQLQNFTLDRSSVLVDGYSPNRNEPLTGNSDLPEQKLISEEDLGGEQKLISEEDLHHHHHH
Assay: SPR Biacore, antibody captured, soluble monomeric hMUC16.mmh injected, 25C
Units before log transform: M⁻¹ s⁻¹; reported quantity: kon; transform: log10.

log10 of kon reading for H1H8755P (antibody, human IgG1, V domains shown, Human IgG1 (H1H)) VH: EVQLVESGGGLVQPGRSLRLSCAASGFTFNDYAMHWVRQSPGKGLEWVSGIDWNGGSIDYADSVKGRFTISRDTAKNSLYLQMNSLKVEDTALYYCAKDIGHWNYIGGMDVWGQGTTVTVSS VL: DIQMTQSPSSLSASVGDRVTITCRASQSINIYLNWYQQKPGKAPKFLIYAASSLQTGVPSRFSGSGSGTDFTLTISSLEPEDFATYYCQHSYSTPPITFGQGTRLEIK : 5.72

log10 of kon reading for H1H8770P (antibody, human IgG1, V domains shown, Human IgG1 (H1H)) VH: QVQLVESGGGVVQPGRSLRLSCAASGFTFSDHGMHWVRQAPGKGLEWVAVISYHGSNKHYADSVKGRFTISRDNSKNALYLQMNSLRPEDTAMYYCAKDGYDFWNGYSLFDYWGQGTLVTVSS VL: DIQMTQSPSSLSASVGDRVTITCRASQSISNYLNWYQQKPGKAPKLLIYTASNLLSGVPSRFSGSGSGTDFTLTISSLQPEDFATYYCQQSYSTPPITFGQGTKLEIK : 5.39

log10 of kon reading for H1H8808P (antibody, human IgG1, V domains shown, Human IgG1 (H1H)) VH: QVQLVESGGGVVQPGRSLRLSCVASGFTFSNYGIHWVRQAPGKGLEWVAVISDDGSFKFYADSVKGRFTISRDNSKNTLYLQMNSLRVEDSAVYHCAKWQHNWNDGGFDYWGQGTLVTVSS VL: EIVLTQSPDTLSLSPGERATLSCRASQSLSSNYLAWYRQKPGQAPRLLIYGISSRATGIPDRFSGSGSGTDFTLTISRLEPEDFAVYYCQQYGSSPWTFGQGTKVEIK : 3.61

log10 of kon reading for H1H8794P (antibody, V domains shown, Human IgG1 (H1H)) VH: QVQLVESGGGLVKPGGSLRLSCAASGFTFRDYSMSWIRQAPGKGLEWVSYVTFFNSAIYYADSVKGRFTISRDNAKNSLYLQMNSLRAEDTAVYYCAREREPIVGGFDYWGQGTLVTVSS VL: DIQMTQSPSSLSASVGDRVTITCRASQSINSYLNWYQQKPGKAPKLLIYAASSLQGGVPSRFSGGGSGTDFTLTITSLQPEDFATFYCQQSYSSPPITFGQGTRLEIK : 5.56

log10 of kon reading for H1H8783P (antibody, human IgG1, V domains shown, Human IgG1 (H1H)) VH: QVQLVESGGGVVQPGRSLRLSCAASGFTFSDHAMHWVRQAPGKGLEWVAVISYHGTDKQYGDSVKGRFTISRDNSKNALYLQMNSLRPEDTAMYYCAKDGYDFWNAYSLFDYWGQGTLVTVSS VL: DIQMTQSPSSLSASVGDRVTITCRASQSISNYLNWYQQKPGKAPKLLIYTASSLLSGVPSRFSGSGSGTDFTLTISSLQPEDFATYYCQQSYSTPPITFGQGTRLEIK : 5.24
